The values you see were collected from PubChem BioAssay.

Assay: HepG2 cytotoxicity, primary screen, cytotoxicity control for P. falciparum antimalarial project, cell-based, ATP luminescence (AID 2303);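 further: 0% = DMSO wells and 100% = digitonin-killed cells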
Details: HepG2 viability, 24-48 h, at 10 µM
The source made the active and inactive calls.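 How the source made its calls: active means inhibition above 50%; inactive means the rest.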
Hi! Could you answer with just one of these? active, inactive

Study these solved cases before continuing.
1) CC(Cc1ccc([N+](=O)[O-])cc1)NCC(O)c1cccc(C(F)(F)F)c1 (centres undefined)    inactive
2) COC(=O)/C=C/c1ccc(CC(C)NCC(O)c2cccc(C(F)(F)F)c2)cc1 (centres undefined)    inactive
3) CC1CN=C(Nc2ncc(Cl)cc2Cl)N1 (centres undefined)    inactive
4) CC(C)CNCc1cccc(-c2cccc(CN(C(=O)Nc3ccccc3)C3CCN(Cc4ccccc4)CC3)c2)c1    inactive
5) O=C(CC1CCCC1)N(CC1CCN(Cc2ccc(C(F)(F)F)cc2)CC1)c1ccc(N2CCOCC2)c(F)c1    inactive
6) COc1cc(NC(=O)c2nn(CCCN3CCC4(CC3)C(=O)NCN4c3ccccc3)cc2-c2ccc(Cl)c(Cl)c2)cc(OC)c1OC    inactive
7) O=C(/C=C/c1ccc(Cl)c(Cl)c1)N1CCC(CN2CCC(c3c[nH]c4cc5c(cc34)OCO5)CC2)CC1    inactive
8) Cn1c(C2C[C@H]3CC[C@H](C2)N3CC2CCC(NC(=O)/C=C/c3ccc(Cl)c(Cl)c3)CC2)nc2ccccc21 (some centres undefined)    active

For the next question, use this compound.
Ask | What did this assay record as the result for CO/C=C(/C(=O)OC)c1ccccc1Oc1cc(Oc2ccccc2C#N)ncn1 ?
Reply | inactive

---

Would you mind telling me the reported red/green cell ratio (normalised) of each entry?
Assay: differential killing of epithelial or mesenchymal cells, primary screen, imaging, PC-3E GFP, TEM4-18 mCherry, co-culture (AID 1345086);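 further: normalised mesenchymal count divided by normalised epithelial count so high means epithelial killing; cells exposed to compound for 72 h before imaging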
Conditions: imaging cell counts, at 1 µM, actives lie on both sides
One number for each entry.

Past entries and their recorded results:
1. CC1=CCCC2C1(C)CCC(C)C2(C)CC/C(C)=C/C[n+]1cn(C)c2c(N)ncnc21 (centres undefined)    0.92
2. O=C(O)c1nn(Cc2ccc(Cl)cc2Cl)c2ccccc12    0.98
3. COC[C@]12CN(C=O)C3[C@@H]4[C@H](OC)C1[C@]3(C1CC3(O)C(OC)C(O)C4(OC(C)=O)C1C3OC(=O)c1ccccc1)[C@@H](OC)C[C@H]2O (some centres undefined)    1
4. C=C/C=C\CC1=C[C@@H](OC(=O)[C@@H]2[C@@H](C=C(C)C)C2(C)C)CC1=O    0.66

Look at each molecule and report its red/green cell ratio (normalised).
1. CCCC(C)(COC(N)=O)COC(=O)NC(C)C (centres undefined)
2. COc1ccc(C(=O)O)cc1OC
3. C[C@]12CCC3[C@@H](CC[C@@]45O[C@@H]4C(O)=C(C#N)C[C@]35C)C1CC[C@@H]2O (some centres undefined)
4. CC1=C(O)C(=O)C=C2C1=CC=C1[C@@]2(C)CC[C@@]2(C)[C@@H]3C[C@](C)(C(=O)O)CC[C@]3(C)CC[C@]12C

Reply |
1. 1.05
2. 0.77
3. 0.77
4. 0.62

Consider the following items and state reported red/green cell ratio (normalised) for each.
1. C[C@]12CC[C@H](O)CC1=CCC1C2CC[C@]2(C)C(=O)CC[C@@H]12 (some centres undefined)
2. CC(C)C[C@@H](CN)CC(=O)O
3. CCOP(=S)(OCC)Oc1ccc2c(C)c(Cl)c(=O)oc2c1

Reply |
1: 0.71; 2: 1.06; 3: 1.09

Kindly give each listed record's red/green cell ratio (normalised).
1. O=C1c2ccccc2C(=O)c2ccccc21
2. CN(C)C(=O)Oc1cc(OC(=O)N(C)C)cc(C(O)CNC(C)(C)C)c1 (centres undefined)
3. CCCCCCCCCCCCCCCC[N+](C)(C)C
4. Fc1ccc(N2CCNCC2)c(F)c1

Reply |
0.79
0.71
0.49
1.03

Provide red/green cell ratio (normalised) values for the following items, in order.
1. O=[N+]([O-])c1ccc([As](=O)(O)O)cc1
2. COc1cc2c(cc1O)CCNC2C (centres undefined)
3. C=CCC1(C(C)CCC)C(=O)N=C(S)NC1=O (centres undefined)
4. C=CCSSCC=C
5. C=CCN=C=S
6. O=[N+]([O-])O[C@H]1CO[C@H]2[C@@H]1OC[C@H]2O[N+](=O)[O-]
7. CCCCCCCCCc1ccc(O)cc1

Reply |
[0.85, 0.92, 1.3, 1.09, 0.88, 1.14, 0.85]

Dear reader, for each entry below, please note its red/green cell ratio (normalised).
1. O=C(O)Cc1ccccc1
2. CCCCC[C@H]1C(=O)O[C@H](C)[C@H](NC(=O)c2cccc(NC=O)c2O)C(=O)O[C@@H](C)[C@@H]1OC(=O)CC(C)C

Reply |
1: 0.91; 2: 0.71

---

Hi there, I'd appreciate the recorded cell count for every entry that follows.
Assay: sensitizers of A549 cells to miR-34 induction, primary screen, imaging, A549 dox-inducible miR-34, nuclei and caspase counts (AID 1347080)
Conditions: A549 miR-34 inducible, Hoechst nuclei count, 48 h; measured here: total cells without miR-34 induction
One number for each entry.

Some entries whose results are on file:
1) Fc1ccc(C(OCCN2CCN(C/C=C/c3ccccc3)CC2)c2ccc(F)cc2)cc1    2710
2) CC1[C@H](C)OC(=O)CC(O)CC(O)CC(O)CCC(O)C(O)C[C@]2(O)CC(O)C(C(=O)O)C(CC(OC3O[C@H](C)[C@@H](O)[C@H](N)[C@@H]3O)/C=C/C=C/C=C/C=C/CC/C=C/C=C/[C@H](C)[C@H]1O)O2 (stereo partly drawn)    13400
3) NC(CC(=O)N1CCn2c(nnc2C(F)(F)F)C1)Cc1cc(F)c(F)cc1F (stereo not drawn)    10500
4) C[C@]12CCC3C(CC[C@H]4C[C@H](O)CC[C@]34C)C1CC[C@@H]2C(=O)CO (stereo partly drawn)    9790
5) CCNC(=O)[C@H]1O[C@@H](n2cnc3c(N)ncnc32)[C@H](O)[C@@H]1O    9140
6) CCCCCCCCCCCCCCCC(=O)OC[C@H](COP(=O)([O-])OCC[N+](C)(C)C)OC(=O)CCCC=O    5690
7) CCCN[C@@H]1CCc2c(OC)cccc2[C@@H]1C    9360

Read the next record carefully.
Ask | What value of measured cell count is listed for CCN1C[C@]2(COC)CC[C@H](O)[C@]34C1[C@](O)([C@@H](OC)[C@H]23)[C@@]1(O)C[C@H](OC)[C@H]2C[C@@H]4[C@@H]1[C@H]2OC ?
Reply | 10600

---

Exercise: for every item that follows, state its recorded growth inhibition.
Assay: inhibition of 3D7 malaria parasite growth – strain 3D7 (AID 2306);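 further: 0% = DMSO wells and 100% = chloroquine plus artemisinin control wells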
Details: P. falciparum 3D7 erythrocytic growth, LDH absorbance, 72 h; at 2 µM; stronger effect = higher value
Numbers only, in %.

Consider the following illustrative entries.
1. CN1CC=C(c2c[nH]c3ccc(C(=O)c4nccs4)cc23)CC1    89
2. O=C(NC1CCC(CN2CCC(c3c[nH]c4ccccc34)CC2)CC1)NC12CC3CC(CC(C3)C1)C2 (stereo not drawn)    96

Now for another entry.
Ask | So what does the record say about growth inhibition for O=C(C=Cc1ccc(F)c(Br)c1)N1CCC(CN2CCC(c3c[nH]c4ccccc34)CC2)CC1 ?
Reply | 100

---

System: F380Y/beta4
Assay: modulators of BK channel variants, profiling panel, selectivity assay, cell-based, U2OS BacMam, thallium flux, beta subunits (AID 1259406);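 further: initial slope of Thallos dye fluorescence rise after thallium is added; log ratio against the mean of 0.3% DMSO vehicle wells on the same plate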
Details: at 30 µM
Active and inactive are the calls of the source.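 Rule for the calls: active = thallium flux through the channel raised or lowered by more than 3 SD from vehicle-only wells, actives on both sides; inactive = the rest.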
Hello, when you answer, please use one of the following outcomes: active, inactive

1. Cc1ccc(S(=O)(=O)N2CN3CCN(C3)C2)cc1    inactive
2. O=c1c2ccccc2[nH]c(=S)n1-c1ccccc1    inactive
3. CCN(CC)CCOC(=O)C(O)(c1ccccc1)c1ccccc1    inactive
4. CCOC(=O)C1(c2ccccc2)CCN(CCC(C#N)(c2ccccc2)c2ccccc2)CC1    inactive
5. CN1CCN(C(=O)O[C@H]2c3nccnc3C(=O)N2c2ccc(Cl)cn2)CC1    inactive
6. C[N+]1(CCC(C(N)=O)(c2ccccc2)c2ccccc2)CCCCC1    inactive

Query molecule follows.
Ask | Please state the recorded outcome for this molecule: O=C(O)CCCc1ccc(N(CCCl)CCCl)cc1
Reply | inactive

---

Target: 6-phosphogluconate dehydrogenase, decarboxylating (Homo sapiens) (UniProt P52209)
Sequence (P52209 whole entry, looked up): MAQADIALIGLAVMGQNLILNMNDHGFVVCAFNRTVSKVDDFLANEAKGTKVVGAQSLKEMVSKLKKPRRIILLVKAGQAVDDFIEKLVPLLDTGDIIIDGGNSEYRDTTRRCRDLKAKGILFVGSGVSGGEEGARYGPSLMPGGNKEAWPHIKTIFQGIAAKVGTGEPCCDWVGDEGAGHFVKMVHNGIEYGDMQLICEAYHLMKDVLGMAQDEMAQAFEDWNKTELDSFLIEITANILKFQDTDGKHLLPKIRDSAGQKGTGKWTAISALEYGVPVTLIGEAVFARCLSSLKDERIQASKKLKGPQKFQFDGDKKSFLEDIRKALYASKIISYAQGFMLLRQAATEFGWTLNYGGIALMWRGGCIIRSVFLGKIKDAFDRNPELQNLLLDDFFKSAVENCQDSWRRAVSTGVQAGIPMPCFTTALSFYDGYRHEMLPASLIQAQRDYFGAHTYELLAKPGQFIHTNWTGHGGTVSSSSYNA
Test: 6PGD enzyme inhibitors, primary screen, biochemical, human, recombinant enzyme, NADPH absorbance (AID 1159550)
Details: recombinant 6PGD, NADPH absorbance 341 nm; at 10 µM; stronger effect = higher value
Active and inactive are the calls of the source.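 How the source made its calls: active means at least 20% inhibition of 6-phosphogluconate dehydrogenase activity; inactive means the rest.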
Reported property: inhibition

1. Cc1nccc2c1[nH]c1ccccc12    -8.63% (inactive)
2. CCCC(C)(COC(N)=O)COC(=O)NC(C)C (stereo not given)    -0.85% (inactive)
3. ClC1=C(Cl)[C@]2(Cl)[C@H]3[C@H]([C@@H]4C=C[C@H]3C4)[C@@]1(Cl)C2(Cl)Cl    6.64% (inactive)
4. O=c1[nH]c2ccccc2n1CCCN1CCC(n2c(=O)[nH]c3cc(Cl)ccc32)CC1    2.55% (inactive)

We next turn to a different compound, shown below.
Ask | Look up inhibition: CCC1(O)CC(OC2CC(N(C)C)C(O)C(C)O2)c2c(cc3c(c2O)C(=O)c2c(O)ccc(O)c2C3=O)C1C(=O)OC (stereo not given)
Reply | -0.278% (inactive)
